biological target: Tyrosyl-tRNA synthetase, putative (Trypanosoma cruzi (strain CL Brener)) (UniProt Q4DSP6); test: Trypanosoma cruzi tyrosyl tRNA synthetase (TcYRS) SOP; assay type: functional; parameters: scale not given: direction of the effect not stated beside the values; conditions: 30 µM
Sequence (Q4DSP6 as listed by the source): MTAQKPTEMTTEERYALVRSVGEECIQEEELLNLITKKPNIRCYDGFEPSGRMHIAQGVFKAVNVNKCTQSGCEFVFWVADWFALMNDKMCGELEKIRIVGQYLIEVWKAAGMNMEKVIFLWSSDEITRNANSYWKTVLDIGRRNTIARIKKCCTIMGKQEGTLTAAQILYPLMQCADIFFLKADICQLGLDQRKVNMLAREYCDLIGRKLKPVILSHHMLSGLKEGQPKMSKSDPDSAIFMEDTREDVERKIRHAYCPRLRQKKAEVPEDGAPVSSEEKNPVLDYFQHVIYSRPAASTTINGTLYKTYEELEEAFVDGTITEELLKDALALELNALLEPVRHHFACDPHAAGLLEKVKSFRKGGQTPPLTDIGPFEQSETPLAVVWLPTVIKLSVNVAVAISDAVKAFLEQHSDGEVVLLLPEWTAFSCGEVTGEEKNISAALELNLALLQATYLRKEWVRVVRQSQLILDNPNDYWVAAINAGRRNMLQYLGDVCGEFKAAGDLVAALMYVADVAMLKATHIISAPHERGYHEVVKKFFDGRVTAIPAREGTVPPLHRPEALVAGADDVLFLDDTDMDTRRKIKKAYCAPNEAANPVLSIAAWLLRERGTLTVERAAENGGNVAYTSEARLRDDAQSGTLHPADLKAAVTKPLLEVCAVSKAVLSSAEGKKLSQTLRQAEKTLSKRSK
Value type: Percent Effect (%)

INSERT INTO results (compound, value_type, reported_value) VALUES
  ('CCCS(=O)(=O)NCc1cccnc1OCC', 'Percent Effect', -1.24),
  ('Cc1cc(F)ccc1CNCCn1cccn1', 'Percent Effect', 2.56),
  ('Cc1cn(-c2ccccc2)nc1NS(=O)(=O)c1cc(C(=O)O)cs1', 'Percent Effect', -12.5),
  ('Cn1cc(C2CCCN2C(=O)Cc2n[nH]c3ccccc23)cn1 (stereo not drawn)', 'Percent Effect', 21.5),
  ('Cc1cccnc1NC(=O)NC(C)Cn1cccn1 (stereo not drawn)', 'Percent Effect', 2.44),
  ('Cc1cccc(COC[C@@H]2CC[C@H]3[C@H](CCN3Cc3ccco3)O2)n1', 'Percent Effect', 13.6),
  ('c1cc(CN2CCN(Cc3cscn3)CC2)cs1', 'Percent Effect', 2.35),
  ('Cc1nnc(NCC2(c3ccccc3)CC2)c(C#N)c1C', 'Percent Effect', 4.88),
  ('COc1cc(C(=O)Nc2nc(C)no2)ccc1C', 'Percent Effect', 26.6),
  ('CN(Cc1ccsc1)C(=O)CN1CCCC1Cn1cccn1 (stereo not drawn)', 'Percent Effect', 7.06),
  ('CCOc1ccc(NC(=O)c2cnc(N3CCCC3)nc2C)cc1', 'Percent Effect', 16.7),
  ('COc1ccccc1OCC(=O)NS(=O)(=O)c1cc(F)ccc1F', 'Percent Effect', 4.88),
  ('c1ccc(C[C@H]2CN(Cc3nccs3)CC[C@H]2OCC2CC2)cc1', 'Percent Effect', 11.5);
